Known IC50 of a selection of compounds
test system: HL60; assay: XTT cytotoxicity assay, HL-60; assay type: cell-based; conditions: Homo sapiens, HL-60; 72 h incubation; read-out: XTT, IC50 HL60

>  <query_smiles>
Cc1ncnc2c1c(-c1cccs1)cn2[C@@H]1O[C@H](CO)[C@@H](O)[C@H]1O

>  <IC50>
5.73 µM

$$$$
>  <query_smiles>
Cc1ncnc2c1c(-c1ccco1)cn2[C@@H]1O[C@H](CO)[C@@H](O)[C@H]1O

>  <IC50>
0.21 µM

$$$$
>  <query_smiles>
CNc1ncnc2c1c(-c1cc3ccccc3o1)cn2[C@@H]1O[C@H](CO)[C@@H](O)[C@H]1O

>  <IC50>
8.95 µM

$$$$
>  <query_smiles>
CNc1ncnc2c1c(-c1ccoc1)cn2[C@@H]1O[C@H](CO)[C@@H](O)[C@H]1O

>  <IC50>
> 15 µM

$$$$

====

tested on: BJ; assay: Cytostatic/cytotoxic MTT assay, BJ fibroblasts; assay type: cell-based; settings: Homo sapiens, non-malignant fibroblasts, 72 h, read-out: MTT, IC50 BJ

>  <query_smiles>
CN(C)c1ncnc2c1c(-c1ccoc1)cn2[C@@H]1O[C@H](CO)[C@@H](O)[C@H]1O

>  <IC50>
99.2 µM

$$$$
>  <query_smiles>
COc1ncnc2c1c(-c1ccco1)cn2[C@@H]1O[C@H](CO)[C@@H](O)[C@H]1O

>  <IC50>
0.43 µM

$$$$
>  <query_smiles>
CN(C)c1ncnc2c1c(-c1cc3ccccc3o1)cn2[C@@H]1O[C@H](CO)[C@@H](O)[C@H]1O

>  <IC50>
> 100 µM

$$$$
>  <query_smiles>
Cc1ncnc2c1c(-c1cccs1)cn2[C@@H]1O[C@H](CO)[C@@H](O)[C@H]1O

>  <IC50>
> 100 µM

$$$$

====

tested on: K562; assay: Cytostatic/cytotoxic MTT assay, K562; type: cell-based; conditions: Homo sapiens, K562; 72 h incubation; read-out: MTT, IC50 K562
pIC50: −log10 of the molar value.
Property: pIC50; scope: individual compounds
measured_quantity: pIC50

>  <compound>
Cc1ncnc2c1c(-c1ccoc1)cn2[C@@H]1O[C@H](CO)[C@@H](O)[C@H]1O

>  <comparative_sign>
<

>  <reported_measurement>
4.70

$$$$
>  <compound>
Cc1ncnc2c1c(-c1ccsc1)cn2[C@@H]1O[C@H](CO)[C@@H](O)[C@H]1O

>  <comparative_sign>
=

>  <reported_measurement>
6.49

$$$$
>  <compound>
CNc1ncnc2c1c(-c1cccs1)cn2[C@@H]1O[C@H](CO)[C@@H](O)[C@H]1O

>  <comparative_sign>
<

>  <reported_measurement>
4.70

$$$$
>  <compound>
Cc1ncnc2c1c(-c1cccs1)cn2[C@@H]1O[C@H](CO)[C@@H](O)[C@H]1O

>  <comparative_sign>
<

>  <reported_measurement>
4.70

$$$$
>  <compound>
Cc1ncnc2c1c(-c1ccco1)cn2[C@@H]1O[C@H](CO)[C@@H](O)[C@H]1O

>  <comparative_sign>
=

>  <reported_measurement>
7.40

$$$$
>  <compound>
CNc1ncnc2c1c(-c1ccoc1)cn2[C@@H]1O[C@H](CO)[C@@H](O)[C@H]1O

>  <comparative_sign>
<

>  <reported_measurement>
4.70

$$$$
>  <compound>
CSc1ncnc2c1c(-c1ccsc1)cn2[C@@H]1O[C@H](CO)[C@@H](O)[C@H]1O

>  <comparative_sign>
=

>  <reported_measurement>
6.35

$$$$
>  <compound>
CSc1ncnc2c1c(I)cn2[C@@H]1O[C@H](CO)[C@@H](O)[C@H]1O

>  <comparative_sign>
=

>  <reported_measurement>
4.98

$$$$
>  <compound>
CSc1ncnc2c1c(-c1ccccc1)cn2[C@@H]1O[C@H](CO)[C@@H](O)[C@H]1O

>  <comparative_sign>
<

>  <reported_measurement>
4.70

$$$$
>  <compound>
Cc1ncnc2c1c(-c1ccccc1)cn2[C@@H]1O[C@H](CO)[C@@H](O)[C@H]1O

>  <comparative_sign>
<

>  <reported_measurement>
4.70

$$$$
>  <compound>
COc1ncnc2c1c(-c1cc3ccccc3o1)cn2[C@@H]1O[C@H](CO)[C@@H](O)[C@H]1O

>  <comparative_sign>
=

>  <reported_measurement>
4.68

$$$$
>  <compound>
COc1ncnc2c1c(I)cn2[C@@H]1O[C@H](CO)[C@@H](O)[C@H]1O [Compound 1h, reference compound]

>  <comparative_sign>
<

>  <reported_measurement>
4.70

$$$$

Data provenance is patent US9586986B2.
